Source: ChEMBL document CHEMBL1687913

- assay-details: Toxicity in human erythrocytes assessed as hemolysis at 24 uM after 40 mins
- Format: cell-based, Erythrocyte
- experimental-context: read-out: Activity
Where a SMILES comes first, the peptide text is derived from it.
Could you please report measured hemolysis at 40 min, 24 µM for the items listed next?

Before answering, review these 2 worked examples.
compound	hemolysis at 40 min, 24 µM
CC[C@H](C)[C@H](NC(=O)[C@H](CCCNC(=N)N)NC(=O)CNC(=O)[C@H](CC(C)C)NC(=O)[C@H](Cc1ccccc1)NC(=O)[C@H](CCCCN)NC(=O)[C@H](CO)NC(=O)[C@H](Cc1ccccc1)NC(=O)[C@H](Cc1c[nH]c2ccccc12)NC(=O)[C@H](CCCNC(=N)N)NC(=O)[C@@H](NC(=O)[C@@H](N)Cc1ccccc1)C(C)C)C(=O)N[C@@H](CC(C)C)C(N)=O (H-FVRWFSKFLGRIL-NH2)	100%
CC[C@H](C)[C@H](NC(=O)[C@H](CCCNC(=N)N)NC(=O)[C@H]1CCCN1C(=O)[C@H](CC(C)C)NC(=O)[C@H](Cc1ccccc1)NC(=O)[C@H](CCCCN)NC(=O)[C@H](CO)NC(=O)[C@H](Cc1ccccc1)NC(=O)[C@H](Cc1c[nH]c2ccccc12)NC(=O)[C@@H]1CCCN1C(=O)[C@@H](NC(=O)[C@@H](N)Cc1ccccc1)C(C)C)C(=O)N[C@@H](CC(C)C)C(N)=O	2.5%

Moving on to another compound below.
Notebook: CC[C@H](C)[C@H](NC(=O)[C@H](CCCNC(=N)N)NC(=O)[C@H](CC(C)C)NC(=O)[C@H](CC(C)C)NC(=O)[C@H](Cc1ccccc1)NC(=O)[C@H](CCCCN)NC(=O)[C@H](CO)NC(=O)[C@H](Cc1ccccc1)NC(=O)[C@H](Cc1c[nH]c2ccccc12)NC(=O)[C@H](CCC(N)=O)NC(=O)[C@@H](NC(=O)[C@@H](N)Cc1ccccc1)C(C)C)C(=O)N[C@@H](CC(C)C)C(N)=O (H-FVQWFSKFLLRIL-NH2) , hemolysis at 40 min, 24 µM read as 83%

====

- Tested on: Saccharomyces cerevisiae
- assay-details: Antifungal activity against Saccharomyces cerevisiae after 18 to 20 hrs by microbroth dilution method
- Type: functional
Where a SMILES comes first, the peptide text is derived from it.
endpoint-label: MIC

compound	MIC
CC[C@H](C)[C@H](NC(=O)[C@H](CCCNC(=N)N)NC(=O)CNC(=O)[C@H](CC(C)C)NC(=O)[C@H](Cc1ccccc1)NC(=O)[C@H](CCCNC(=N)N)NC(=O)[C@H](CO)NC(=O)[C@H](Cc1ccccc1)NC(=O)[C@H](Cc1c[nH]c2ccccc12)NC(=O)[C@H](CCCNC(=N)N)NC(=O)[C@@H](NC(=O)[C@@H](N)Cc1ccccc1)C(C)C)C(=O)N[C@@H](CC(C)C)C(N)=O (H-FVRWFSRFLGRIL-NH2)	24 µM
CC[C@H](C)[C@H](NC(=O)[C@H](CCCCN)NC(=O)CNC(=O)[C@H](CC(C)C)NC(=O)[C@H](Cc1ccccc1)NC(=O)[C@H](CCCCN)NC(=O)[C@H](CO)NC(=O)[C@H](Cc1ccccc1)NC(=O)[C@H](Cc1c[nH]c2ccccc12)NC(=O)[C@H](CCC(N)=O)NC(=O)[C@@H](NC(=O)[C@@H](N)Cc1ccccc1)C(C)C)C(=O)N[C@@H](CC(C)C)C(N)=O (H-FVQWFSKFLGKIL-NH2)	6 µM
CC[C@H](C)[C@H](NC(=O)[C@H](CCCNC(=N)N)NC(=O)CNC(=O)[C@H](CC(C)C)NC(=O)[C@H](Cc1ccccc1)NC(=O)[C@H](CCCCN)NC(=O)[C@H](CO)NC(=O)[C@H](Cc1ccccc1)NC(=O)[C@H](Cc1c[nH]c2ccccc12)NC(=O)[C@H](CCCNC(=N)N)NC(=O)[C@@H](NC(=O)[C@@H](N)Cc1ccccc1)C(C)C)C(=O)N[C@@H](CC(C)C)C(N)=O (H-FVRWFSKFLGRIL-NH2)	24 µM
CC(C)C[C@H](NC(=O)[C@H](Cc1c[nH]c2ccccc12)NC(=O)[C@H](CCCNC(=N)N)NC(=O)CNC(=O)[C@H](CC(C)C)NC(=O)[C@H](CC(C)C)NC(=O)[C@H](CCCCN)NC(=O)[C@H](CO)NC(=O)[C@H](CC(C)C)NC(=O)[C@H](Cc1c[nH]c2ccccc12)NC(=O)[C@H](CCC(N)=O)NC(=O)[C@H](CC(C)C)NC(=O)[C@@H](N)CC(C)C)C(N)=O (H-LLQWLSKLLGRWL-NH2)	12 µM
CC[C@H](C)[C@H](NC(=O)[C@H](CCCNC(=N)N)NC(=O)CNC(=O)[C@H](CC(C)C)NC(=O)[C@H](Cc1ccccc1)NC(=O)[C@H](CCCCN)NC(=O)[C@H](CO)NC(=O)[C@H](Cc1ccccc1)NC(=O)[C@H](Cc1c[nH]c2ccccc12)NC(=O)[C@H](CCC(N)=O)NC(=O)[C@@H](NC(=O)[C@@H](N)Cc1ccccc1)C(C)C)C(=O)N[C@@H](CC(C)C)C(N)=O	6 µM

Give MIC for all compounds that follow.
1. CC(C)C[C@H](NC(=O)[C@H](CC(C)C)NC(=O)[C@H](CCCNC(=N)N)NC(=O)CNC(=O)[C@H](CC(C)C)NC(=O)[C@H](CC(C)C)NC(=O)[C@H](CCCCN)NC(=O)[C@H](CO)NC(=O)[C@H](CC(C)C)NC(=O)[C@H](Cc1c[nH]c2ccccc12)NC(=O)[C@H](CCC(N)=O)NC(=O)[C@H](CC(C)C)NC(=O)[C@@H](N)CC(C)C)C(N)=O (H-LLQWLSKLLGRLL-NH2)
2. CC[C@@H](C)[C@@H](NC(=O)[C@H](N)CC(C)C)C(=O)N[C@H](CCCNC(=N)N)C(=O)NCC(=O)N[C@H](CC(C)C)C(=O)N[C@H](Cc1ccccc1)C(=O)N[C@H](CCCCN)C(=O)N[C@H](CO)C(=O)N[C@H](Cc1ccccc1)C(=O)N[C@H](Cc1c[nH]c2ccccc12)C(=O)N[C@H](CCC(N)=O)C(=O)N[C@@H](C(=O)N[C@H](Cc1ccccc1)C(N)=O)C(C)C

Solution:
["3 µM", "> 48 µM"]
